- target entity: BRAF V600E (Homo sapiens, UniProt P15056, V600E)
- Sequence (P15056 whole entry V600E): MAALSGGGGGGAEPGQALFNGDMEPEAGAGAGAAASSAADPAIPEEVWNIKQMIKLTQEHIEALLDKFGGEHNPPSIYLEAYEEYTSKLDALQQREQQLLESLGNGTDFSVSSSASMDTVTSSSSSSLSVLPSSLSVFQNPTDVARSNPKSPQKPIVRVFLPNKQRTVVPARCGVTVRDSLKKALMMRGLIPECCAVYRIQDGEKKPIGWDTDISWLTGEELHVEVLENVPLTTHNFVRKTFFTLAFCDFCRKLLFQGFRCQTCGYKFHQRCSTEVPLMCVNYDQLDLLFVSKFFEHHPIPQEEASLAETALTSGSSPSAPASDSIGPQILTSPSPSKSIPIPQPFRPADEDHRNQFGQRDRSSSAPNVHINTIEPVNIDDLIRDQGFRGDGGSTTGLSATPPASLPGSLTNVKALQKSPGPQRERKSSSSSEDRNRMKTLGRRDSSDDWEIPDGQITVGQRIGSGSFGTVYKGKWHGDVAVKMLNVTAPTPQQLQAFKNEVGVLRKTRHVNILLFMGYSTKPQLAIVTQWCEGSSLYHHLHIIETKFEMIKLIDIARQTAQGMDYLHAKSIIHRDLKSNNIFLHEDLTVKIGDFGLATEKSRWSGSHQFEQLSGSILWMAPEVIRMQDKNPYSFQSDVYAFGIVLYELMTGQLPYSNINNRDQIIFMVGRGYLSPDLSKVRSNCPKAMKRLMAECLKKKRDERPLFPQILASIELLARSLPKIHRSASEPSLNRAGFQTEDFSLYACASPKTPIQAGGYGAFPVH
- assay method text: HiBiT cellular BRAF^V600E degradation assay
- Format: cell-based
- recorded conditions: A375.10 cells, 24 h; concentration at which 50% of total cellular BRAF^V600E is degraded
Examples of compounds with documented DC50 follow.
Could you give me the number in nM? Just the number is fine.

Known results for compounds:
compound	DC50 / nM
N#Cc1c(NS(=O)(=O)C2CC2)ccc(F)c1Oc1ccc2ncn(-c3cnc(N4CCN(C(=O)CN5CCC(c6ccc(N[C@H]7CCC(=O)NC7=O)cc6F)CC5)CC4)nc3)c(=O)c2c1	8.33
Cn1nc(N2CCC(=O)NC2=O)c2cc(F)c(N3CCC(O)(CC(=O)N4CCC5(CC4)C[C@@H](n4cnc6ccc(Oc7c(F)ccc(NS(=O)(=O)N8CC[C@@H](F)C8)c7C#N)cc6c4=O)CO5)CC3)cc21	39.3

Endpoint output: DC50 of CCN(C)S(=O)(=O)Nc1ccc(F)c(Oc2ccc3ncn([C@@H]4COC5(CCN(C(=O)CC6(O)CCN(c7cc8c(cc7F)c(N7CCC(=O)NC7=O)nn8C)CC6)CC5)C4)c(=O)c3c2)c1C#N . Value?
18.6

Fill blank: measured DC50 of the compound CCN(C)S(=O)(=O)Nc1ccc(F)c(Oc2ccc3ncn(C4CCC5(CC4)CCN(C(=O)CN4CCN(c6cc7c(cc6F)c(N6CCC(=O)NC6=O)nn7C)CC4)CC5)c(=O)c3c2)c1C#N is ____.
27.6

Record request: DC50 value, item CCN(C)S(=O)(=O)Nc1ccc(F)c(Oc2ccc3ncn(C4COC5(CCN(C(=O)NC6CCN(c7ccc(NC8CCC(=O)NC8=O)cc7F)CC6)CC5)C4)c(=O)c3c2)c1C#N (centres unmarked)
36

Taken from patent US12486253B2.
